# Tested on: ATP;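 also: ATP exposure 15 min at 22 °C before imaging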
# assay_method_text: switch fluorescence ratio, 500 uM ATP over buffer (Cy3 cluster intensity, sum of 5 cycles each) (fold (ratio)); higher = stronger signal-on switching upon ATP binding; sequences stand for … in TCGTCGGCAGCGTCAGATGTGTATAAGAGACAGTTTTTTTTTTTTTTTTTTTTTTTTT…TC
# condition_set: aptamer strand: ATP DNA aptamer (quencher-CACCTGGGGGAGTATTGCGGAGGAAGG + anchor), 100 nM annealed; ATP concentration: 500 uM
Below, each entry is listed with its recorded switch fluorescence ratio.
Enter the number alone.

Known switch fluorescence ratio results, listed for orientation:
TTGTGAGTAG ... 1
GATTGTAGGC ... 1.03
ATTTTATTAC ... 1.04
ACCGTTAGGT ... 0.951
GCCGGAGGGG ... 1.26
ACCGCGTATG ... 1.03
CAGGTTGTGC ... 0.98
ATAGGGGTT ... 1.02

Recall the recorded switch fluorescence ratio for TTTCTTTTCT with ATP and state it. 1.02

Identify the measured switch fluorescence ratio of TTTTATTGGT for ATP. 0.974

Look up switch fluorescence ratio with ATP for this sequence: GGGGAAATCC 1.02

API: value(readout=switch fluorescence ratio, system=ATP) for record AAATAATGT 1.02

Give the reported switch fluorescence ratio for AAGATGCTTC (system: ATP). 1

Could you share what switch fluorescence ratio was measured for CCCAAAGGGG , tested on ATP? 1.04

For ATP, provide switch fluorescence ratio of TTTTTATTCG please. 0.994

Checklist item: switch fluorescence ratio tested on ATP, entry CTCTGTGTTT , value? 0.992

Tell me reported switch fluorescence ratio for CGATGGTGTT , tested with ATP. 1.01

What measured switch fluorescence ratio is associated with GGGGTGTGAA on ATP? 1.03

Request body: readout switch fluorescence ratio, system ATP, query ACGGGCAGAG . Return the value. 1.02

Given the entry CACGGATAAA , what switch fluorescence ratio was observed with ATP? 1.04

switch fluorescence ratio of TTTAGGTTTG on ATP? 1

// map AGGGGTATT to recorded switch fluorescence ratio (system: ATP) 1

Form entry - test system: ATP; read-out: switch fluorescence ratio; sequence: TTCAATATGC 1.1

Hello, I am looking for reported switch fluorescence ratio with ATP for GACGATATGT . Could you help? 1.07

====

# Test system: ATP;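 also: ATP exposure 15 min at 22 °C before imaging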
# assay_method_text: switch fluorescence ratio, 500 uM ATP over buffer (Cy3 cluster intensity, sum of 5 cycles each) (fold (ratio)); higher = stronger signal-on switching upon ATP binding; sequences stand for … in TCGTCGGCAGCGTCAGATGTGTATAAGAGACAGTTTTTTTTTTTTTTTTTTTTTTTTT…TC
# condition_set: aptamer strand: ATP DNA aptamer (quencher-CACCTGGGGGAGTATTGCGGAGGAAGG + anchor), 100 nM annealed; ATP concentration: 500 uM
Reported values of switch fluorescence ratio for individual entries
Lab note: jot down the number only; don't add units.

Sample records with switch fluorescence ratio:
ACTGTTTCTC ... 0.996
GGACTAGGTG ... 1.16

// switch fluorescence ratio lookup, key: GGATGGGGGG 0.986

Fill blank: measured switch fluorescence ratio of the sequence TGCTTTAAAC is ____. 0.995

I am curious: what switch fluorescence ratio value has been reported for CATATGGGGG ? 1.02

Would you mind telling me what switch fluorescence ratio value was observed for AACTAGGATA ? 1.01

Name the reported switch fluorescence ratio value associated with the sequence CGGGTGCACT 0.98

# query: switch fluorescence ratio of entry TTTGTAGGGA 1.02

Which switch fluorescence ratio is listed for GGGGATTTAG ? 0.971

Where do these numbers come from? They come from the supplement of paper PMC10126150.
